assay.explanation: dissociation constant by HPLC-FLD at different mobile phase pH and methanol content
assay.endpoint: pKa

- CC(=O)CC(c1ccccc1)c1c(O)c2ccccc2oc1=O (stereo not drawn) [WAR, 3-(α-acetonylbenzyl)-4-hydroxycoumarin, reference compound]: 5.42
